- EXPERIMENT: self-splicing fitness, log relative to wild type (ln ratio); higher = more splicing; Tetrahymena group I intron in knt gene, E. coli kanamycin selection, DiMSum; sequences stand for … in CUCUCU…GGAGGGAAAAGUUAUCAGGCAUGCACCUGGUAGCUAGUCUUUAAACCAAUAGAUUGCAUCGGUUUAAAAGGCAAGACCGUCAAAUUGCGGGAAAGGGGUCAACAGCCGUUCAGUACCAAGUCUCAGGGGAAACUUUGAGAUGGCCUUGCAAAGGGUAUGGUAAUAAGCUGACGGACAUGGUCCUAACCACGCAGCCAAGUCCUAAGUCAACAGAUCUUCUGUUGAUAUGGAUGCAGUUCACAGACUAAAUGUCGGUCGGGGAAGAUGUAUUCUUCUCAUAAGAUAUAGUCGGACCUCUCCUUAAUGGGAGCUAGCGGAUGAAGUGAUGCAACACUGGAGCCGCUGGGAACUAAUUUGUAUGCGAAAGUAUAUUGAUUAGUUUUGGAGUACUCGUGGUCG;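 also: selection with 25 µg/mL kanamycin versus none on LB agar overnight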
- RECORDED_CONDITIONS: 30 °C
Please respond with reported self-splicing fitness (ln) for every item in the list.
The answer should be a number; do not append a unit.

Consider the sequence `UCGUAGCAAUAUUACGUCUA` and give its measured self-splicing fitness (ln).
-1.48

Fill blank: measured self-splicing fitness (ln) of the sequence `UCUUAGCAAUAUUACGGGCG` is ____.
-1.5

Could you tell me which self-splicing fitness (ln) is on file for `ACAUAGCAAUAUUACGCGAG` ?
-1.01

What value of self-splicing fitness (ln) has been recorded for this entry: `UACAAGCAAUAUUACGUGAC`
-3.89

Could you share which self-splicing fitness (ln) value was measured for `UGAAAGCAAUAUUACGCAAA` ?
-2.12

Name the recorded self-splicing fitness (ln) for `UGGAAGCAAUAUUACGGAAU` .
-2.76

Recorded self-splicing fitness (ln) for `UGUCAGCAAUAUUACGACAU` , please?
-3.96

Given the entry `AUACAGCAAUAUUACGAAGU` , report its measured self-splicing fitness (ln).
-3.31

Endpoint output: self-splicing fitness (ln) of `ACGCAGCAAUAUUACGUACA` . Value?
-2.03

What value of measured self-splicing fitness (ln) is listed for `AACAAGCAAUAUUACGAGAC` ?
-1.88

Please look up its self-splicing fitness (ln): `UCGUAGCAAUAUUACGCGUG`
-0.861

For the sequence `CCGGAGCAAUAUUACGAAAC` , what self-splicing fitness (ln) is on record?
-1.5

// lookup self-splicing fitness (ln) for `ACAAAGCAAUAUUACGUACU`
-0.16

Look up self-splicing fitness (ln) for this sequence: `UUACAGCAAUAUUACGAUUU`
-1.09

Need self-splicing fitness (ln) of `UCGUAGCAAUAUUACGCAGG` , thanks.
-2.49

Given the sequence `GUUGAGCAAUAUUACGGGCA` , what is its reported self-splicing fitness (ln)?
-3.29

====

Please provide measured self-splicing fitness (ln) for the entries that follow.
- EXPERIMENT: self-splicing fitness, log relative to wild type (ln ratio); higher = more splicing; Tetrahymena group I intron in knt gene, E. coli kanamycin selection, DiMSum; sequences stand for … in CUCUCU…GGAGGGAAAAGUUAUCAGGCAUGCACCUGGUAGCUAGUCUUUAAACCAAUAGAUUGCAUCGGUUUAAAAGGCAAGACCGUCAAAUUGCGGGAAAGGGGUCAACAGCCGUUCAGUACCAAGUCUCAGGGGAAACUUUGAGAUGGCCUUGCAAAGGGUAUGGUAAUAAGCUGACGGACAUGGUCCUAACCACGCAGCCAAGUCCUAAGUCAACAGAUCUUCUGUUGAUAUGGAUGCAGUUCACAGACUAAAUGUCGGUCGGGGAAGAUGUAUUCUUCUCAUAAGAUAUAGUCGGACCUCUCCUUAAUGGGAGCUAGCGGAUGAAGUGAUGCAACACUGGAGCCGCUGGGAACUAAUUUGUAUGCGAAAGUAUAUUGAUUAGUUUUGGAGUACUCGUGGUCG
- RECORDED_CONDITIONS: 37 °C
Just the number, please.

// lookup self-splicing fitness (ln) for `AAACAGCAAUAUUACGUCGA`
-0.774

Recorded self-splicing fitness (ln) for `GGUUAGCAAUAUUACGGGAC` , please?
-1.44

self-splicing fitness (ln) lookup needed for `GGGCAGCAAUAUUACGUAUU` , thanks.
0.0363

Entry `AACUAGCAAUAUUACGAAGC` has what self-splicing fitness (ln)?
-0.29

Fill in the blank: the reported self-splicing fitness (ln) of `GGUCAGCAAUAUUACGCAGU` is ____.
-0.639

Need self-splicing fitness (ln) of `CGGAAGCAAUAUUACGAUAA` , thanks.
-1.52

self-splicing fitness (ln) lookup needed for `CAGAAGCAAUAUUACGAACA` , thanks.
-0.783

Please report the recorded self-splicing fitness (ln) for `GCAUAGCAAUAUUACGAGGU` .
-2.07

Fill blank: measured self-splicing fitness (ln) of the sequence `CUAGAGCAAUAUUACGUACA` is ____.
-1.64

Looking for the measured self-splicing fitness (ln) of `GGAUAGCAAUAUUACGUGCU` , can you help?
-1.21

# get_value(readout='self-splicing fitness (ln)', item= `CCAUAGCAAUAUUACGUCUA` )
-2.47

Give the measured self-splicing fitness (ln) of `ACCCAGCAAUAUUACGUUGG` .
-2.16

Bench note: what self-splicing fitness (ln) did `GGGCAGCAAUAUUACGUAUG` show?
-1.44

Query: self-splicing fitness (ln); subject: `CAUGAGCAAUAUUACGUCUA`
-2.28

If you can, please state the reported self-splicing fitness (ln) value of `UCUAAGCAAUAUUACGUUGC` .
-2.81

I'd like to know its self-splicing fitness (ln). The sequence in question is `CUGAAGCAAUAUUACGGGGA`
-2.36

What self-splicing fitness (ln) value was documented for this sequence, `AACGAGCAAUAUUACGCGCC` ?
-2.61

What does the data say about its self-splicing fitness (ln)? Entry: `CAAGAGCAAUAUUACGCUGA`
-2.08

# self-splicing fitness (ln) lookup, item `GGCUAGCAAUAUUACGUCUG`
-2.13

Quick check: self-splicing fitness (ln) of `CCUCAGCAAUAUUACGAACA` ?
-1.46

I am curious: what self-splicing fitness (ln) value has been reported for `UGUUAGCAAUAUUACGUAAU` ?
-1.02

Entry `UACCAGCAAUAUUACGGGCC` : reported self-splicing fitness (ln) = ?
-1.2

Record request: self-splicing fitness (ln) value, item `CGCGAGCAAUAUUACGCGCA`
-2.91

Fill in: self-splicing fitness (ln) of `GGCAAGCAAUAUUACGCCUG` is ___
-0.621

Fill in: self-splicing fitness (ln) of `GCCGAGCAAUAUUACGAAUA` is ___
-1.51

Would you kindly share the measured self-splicing fitness (ln) for `AGGUAGCAAUAUUACGGACA` ?
-0.397

What does the record list as self-splicing fitness (ln) for `AUGAAGCAAUAUUACGACAC` ?
-0.0401

Item `GAGCAGCAAUAUUACGUACG` has what recorded self-splicing fitness (ln)?
-1.38

Look up self-splicing fitness (ln): `AAACAGCAAUAUUACGUACA`
-0.0501

Given `CGCGAGCAAUAUUACGCGGA` , state its recorded self-splicing fitness (ln).
-2.71

For `UCCUAGCAAUAUUACGGAAG` , what is its reported self-splicing fitness (ln)?
-1.23

What value of self-splicing fitness (ln) has been recorded for this entry: `AUAUAGCAAUAUUACGGAUC`
0.109

Bench note: what self-splicing fitness (ln) did `UCCUAGCAAUAUUACGUUCC` show?
-1.72

Query: self-splicing fitness (ln); subject: `CCGCAGCAAUAUUACGUCUU`
-3.07

// provenance: the supplement of paper PMC7877785
